System: tumor cells
Test: Mitochondrial membrane potential, JC-1 (read-out 48 h)
Assay type: cell-based
Conditions: Homo sapiens; Jurkat cells, JC-1, 48 h; read-out: Mitochondrial membrane potential (read-out 48 h) Jurkat
TEST READOUT: EC50

stdin: Give its EC50 value. Item: CCOc1ccc(F)cc1C(=O)c1oc2cnc(C)cc2c1N [Example 31]
stdout: 0.01 to 0.1 µM

stdin: Give its EC50 value. Item: CCOc1ccc(F)cc1C(=O)c1sc2ncccc2c1N [Example 113]
stdout: 0.1 to 1 µM

stdin: Give its EC50 value. Item: CCOc1ccc(Cl)cc1C(=O)COc1nc(C)ccc1C#N [Example 146]
stdout: 0.01 to 0.1 µM

stdin: Give its EC50 value. Item: CC(C)Oc1ccccc1C(=O)c1oc2ccc(Cl)cc2c1N [Example 9]
stdout: 0.01 to 0.1 µM

stdin: Give its EC50 value. Item: CCOc1cc(OC)c(Br)cc1C(=O)c1oc2ccc(Cl)cc2c1N [Example 23]
stdout: 0.1 to 1 µM

stdin: Give its EC50 value. Item: CCOc1c(C)cccc1C(=O)c1oc2ccc(Cl)cc2c1N [Example 25]
stdout: 0.1 to 1 µM

stdin: Give its EC50 value. Item: CCOc1ccc(F)cc1C(=O)c1sc2ncc(N)cc2c1N [Example 116]
stdout: 0.01 to 0.1 µM

stdin: Give its EC50 value. Item: COc1ccc(OC)c(C(=O)c2oc3ccccc3c2O)c1 [Reference Example A, reference compound]
stdout: > 1 µM

stdin: Give its EC50 value. Item: CCOc1ccc(C(=O)OC)cc1C(=O)c1oc2ccc(Cl)cc2c1N [Example 20]
stdout: 0.01 to 0.1 µM

stdin: Give its EC50 value. Item: CCOc1ccc(OCC)c(C(=O)c2oc3ccc(Cl)cc3c2N)c1 [Example 19]
stdout: 0.1 to 1 µM

stdin: Give its EC50 value. Item: Nc1c(C(=O)c2ccccc2OCc2ccccc2)oc2ccc(Cl)cc12 [Example 1]
stdout: 0.1 to 1 µM

stdin: Give its EC50 value. Item: CCOc1ccc(OC)cc1C(=O)c1oc2ccc(Cl)cc2c1N [Example 12]
stdout: < 0.01 µM

stdin: Give its EC50 value. Item: COc1ccc2oc(C(=O)c3cc(F)ccc3N3CCOCC3)cc2c1 [Example 38]
stdout: 0.01 to 0.1 µM

stdin: Give its EC50 value. Item: Cc1ccc(OC(C)C)c(C(=O)c2oc3ccc(Cl)cc3c2N)c1 [Example 16]
stdout: 0.01 to 0.1 µM

stdin: Give its EC50 value. Item: CCOc1ccc(F)cc1C(=O)c1sc2ncc([N+](=O)[O-])cc2c1N [Example 115]
stdout: > 1 µM

stdin: Give its EC50 value. Item: CCOc1ccc(F)cc1C(=O)c1sc2nc(C)c(C)cc2c1N [Example 118]
stdout: 0.01 to 0.1 µM

stdin: Give its EC50 value. Item: CCOc1ccc(F)cc1C(=O)COc1ccc(Cl)cc1C#N [Example 143]
stdout: < 0.01 µM

stdin: Give its EC50 value. Item: CCOc1ccccc1C(=O)c1oc2nc(C)ccc2c1N [Example 28]
stdout: 0.01 to 0.1 µM

stdin: Give its EC50 value. Item: CCOc1ccc(Cl)cc1C(=O)c1oc2ccc(Cl)cc2c1N [Example 17]
stdout: 0.01 to 0.1 µM

stdin: Give its EC50 value. Item: CCCOc1ccc(OC)cc1C(=O)c1oc2ccc(Cl)cc2c1N [Example 14]
stdout: 0.01 to 0.1 µM
